These measurements were taken from patent US8901138B2.

Exercise: state measured pIC50 for each of the molecules provided.
- system.under.test: MNK2a (Homo sapiens)
- Sequence (Q9HBH9 whole entry): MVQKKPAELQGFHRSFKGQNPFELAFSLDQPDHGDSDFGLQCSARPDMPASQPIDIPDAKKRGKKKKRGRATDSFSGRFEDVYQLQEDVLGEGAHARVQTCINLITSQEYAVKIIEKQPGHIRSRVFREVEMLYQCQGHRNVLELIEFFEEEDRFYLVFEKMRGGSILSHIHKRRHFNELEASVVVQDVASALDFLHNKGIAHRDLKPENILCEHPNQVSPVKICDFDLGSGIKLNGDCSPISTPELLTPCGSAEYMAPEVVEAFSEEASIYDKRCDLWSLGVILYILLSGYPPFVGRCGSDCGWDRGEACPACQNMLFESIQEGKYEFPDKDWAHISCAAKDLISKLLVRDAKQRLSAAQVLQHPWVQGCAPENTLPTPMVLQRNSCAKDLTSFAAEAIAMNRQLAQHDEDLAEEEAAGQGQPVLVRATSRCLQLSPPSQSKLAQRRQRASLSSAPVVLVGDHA
- test: MNK2a in vitro kinase assay (assay 1), ADP-Glo
- condition.summary: preactivated GST-MNK2a, 20 μM ATP, read-out: MNK2 IC50
- Method: A. MNK2a In Vitro Kinase Assay (Assay 1) ASSAY SETUP: The inhibition of kinase activity of MNK2a was assessed using preactivated GST-MNK2a. The white, 384-well OptiPlate F plates were purchased from Perkin Elmer. […] The plates are sealed and after an incubation period of 30 min, the luminescence signal is measured in an Envision reader to determine the amount of produced ADP. […] IC50 values based on dose response curves are calculated with the AssayExplorer software.
Reminder that pIC50 is minus the log10 of a molar concentration.

The molecule listed as Cc1cc(N=S2(=O)CCCC2)cc2ncnc(Nc3ccc(F)cc3O[C@@H]3CO[C@@H]4CCO[C@@H]43)c12 shows pIC50 equal to 9.00

Reported pIC50 for Cc1cc(N=S2(=O)CCCC2)cc2ncnc(Nc3ccc(F)cc3O[C@@H]3CCCN(S(C)(=O)=O)C3)c12 was 8.70

Recorded result, Cc1cc(N=S(C)(C)=O)cc2ncnc(Nc3ccc(F)cc3O[C@@H]3CO[C@@H]4OCC[C@@H]43)c12 (racemic) , pIC50: 7.96

// Cc1cc(N=S(C)(=O)c2ccccn2)cc2ncnc(Nc3ccc(F)cc3O[C@H]3CCOC3)c12 (stereo partly drawn) : pIC50 value = 8.15

Recorded result, CCS(=O)(CC)=Nc1cc(C)c2c(Nc3ccc(F)cc3O[C@H]3CCOC3)ncnc2c1 , pIC50: 7.89

pIC50 recorded for this molecule, CO[C@@H]1CO[C@H]2[C@@H]1OC[C@H]2Oc1cc(F)ccc1Nc1ncnc2cc(N=S3(=O)CCCC3)cc(Cl)c12 , is 9.00

The molecule identified as CS(C)(=O)=Nc1cc(C#N)c2c(Nc3ccc(F)cc3O[C@H]3CCOC3)ncnc2c1 registered its pIC50 at 8.52

Short answer for Cc1cc(N=S(C)(C)=O)cc2ncnc(Nc3ccc(F)cc3O[C@H]3CC[C@H](O)CC3)c12 : pIC50 was 8.52

# molecule COc1cc(N=S2(=O)CCCC2)cc2ncnc(Nc3ccc(F)cc3O[C@H]3CC[C@H](O)CC3)c12 ; its pIC50 = 8.70

Input Cc1cc(N=S(C)(=O)c2ccccn2)cc2ncnc(Nc3ccc(F)cc3O[C@@H]3CO[C@@H]4CCO[C@@H]43)c12 (stereo partly drawn) . Output pIC50: 8.22

Short answer for Cc1cc(N=S(C)(C)=O)cc2ncnc(Nc3ccc(F)cc3OC3COC3)c12 : pIC50 was 8.00

Entry Cc1cc(N=S(C)(C)=O)cc2ncnc(Nc3ccc(F)cc3O[C@@H]3CCCC[C@@H]3O)c12 — recorded pIC50 = 8.15

Sure, the documented pIC50 for C=Cc1cc(N=S(C)(C)=O)cc2ncnc(Nc3ccc(F)cc3O[C@H]3CCOC3)c12 is 8.70

Short answer for Cc1cc(N=S(C)(C)=O)cc2ncnc(Nc3ccc(F)cc3OC3CCCC3)c12 : pIC50 was 8.70

Quick note, pIC50 for CS(C)(=O)=Nc1cc(F)c2c(Nc3ccc(F)cc3O[C@@H]3CCCN(CCO)C3)ncnc2c1 landed at 8.10

###

- system.under.test: MNK1a (Homo sapiens, UniProt Q9BUB5)
- Sequence (Q9BUB5 1-424 isoform Q9BUB5-2): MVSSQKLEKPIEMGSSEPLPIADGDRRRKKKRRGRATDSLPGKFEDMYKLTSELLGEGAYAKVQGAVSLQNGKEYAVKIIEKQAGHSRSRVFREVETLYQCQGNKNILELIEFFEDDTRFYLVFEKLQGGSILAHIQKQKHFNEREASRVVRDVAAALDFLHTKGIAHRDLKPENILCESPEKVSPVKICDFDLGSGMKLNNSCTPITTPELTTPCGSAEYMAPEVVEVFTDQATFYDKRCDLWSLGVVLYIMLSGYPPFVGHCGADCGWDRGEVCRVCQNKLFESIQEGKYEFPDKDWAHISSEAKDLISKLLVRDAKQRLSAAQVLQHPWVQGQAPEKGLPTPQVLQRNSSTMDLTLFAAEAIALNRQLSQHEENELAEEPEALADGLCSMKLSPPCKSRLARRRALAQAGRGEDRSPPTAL
- test: MNK1 in vitro kinase assay (assay 2), Z'-LYTE
- Assay type: biochemical
- condition.summary: compound concentration of 1 μM
quantity: inhibition at 1 µM (%)
Write down the numeric answer in % and omit the unit.

Measured on MNK1a (Homo sapiens, UniProt Q9BUB5), Cc1cc(N=S(C)(C)=O)cc2ncnc(Nc3ccc(F)cc3O[C@@H]3CO[C@@H]4CCC[C@@H]43)c12 has a documented inhibition at 1 µM of 98

// assay MNK1a (Homo sapiens, UniProt Q9BUB5), entry Cc1cc(N=S(C)(C)=O)cc2ncnc(Nc3ccc(F)cc3OC3COC3)c12 , inhibition at 1 µM value = 93

Kindly note: MNK1a (Homo sapiens, UniProt Q9BUB5), CS(C)(=O)=Nc1cc(O)c2c(Nc3ccc(F)cc3O[C@H]3CCOC3)ncnc2c1 , inhibition at 1 µM value reported: 56

# inhibition at 1 µM measured on MNK1a (Homo sapiens, UniProt Q9BUB5) for item Cc1cc(N=S2(=O)CCCC2)cc2ncnc(Nc3ccc(F)cc3O[C@@H]3CCN(S(C)(=O)=O)C3)c12 = 98

###

- system.under.test: MNK1a (Homo sapiens)
- test: MNK1 in vitro kinase assay (assay 2), Z'-LYTE
- Assay type: biochemical
- condition.summary: compound concentration of 1 μM
quantity: inhibition at 1 µM (%)
State the answer as a number, implicitly in %.

// CS(C)(=O)=Nc1cc(F)c2c(Nc3cccnc3O[C@@H]3CCCN(CCO)C3)ncnc2c1 [Example 6.11] : inhibition at 1 µM value = 72

Lab book: inhibition at 1 µM of Cc1cc(N=S(C)(=O)c2ccccn2)cc2ncnc(Nc3ccc(F)cc3O[C@@H]3CO[C@@H]4CCO[C@@H]43)c12 (some centres unmarked) [Example 2.11] noted as 92

For Cc1cc(N=S2(=O)CCNCC2)cc2ncnc(Nc3ccc(F)cc3O[C@@H]3CO[C@H]4[C@@H]3OC[C@H]4O)c12 [Example 3.3] the compound record lists inhibition at 1 µM as 95

Recorded inhibition at 1 µM (compound Cc1cc(N=S(C)(C)=O)cc2ncnc(Nc3ccc(F)cc3O[C@@H]3CCN(CCO)C3)c12 [Example 6.17] ): 79

// sample Cc1cc(N=S(C)(C)=O)cc2ncnc(Nc3ccc(F)cc3O[C@@H]3CO[C@@H]4OCC[C@@H]43)c12 (racemic) [Example 2.62] , its inhibition at 1 µM was 73

Sure, the documented inhibition at 1 µM for Cc1cc(N=S(C)(C)=O)cc2ncnc(Nc3ccc(F)cc3OC3CNOC3)c12 (centres unmarked) [Example 7.18] is 93

compound CCS(=O)(CC)=Nc1cc(C)c2c(Nc3ccc(F)cc3O[C@H]3CCOC3)ncnc2c1 [Example 2.92] , inhibition at 1 µM observed: 83

Summary for this compound, Cc1cc(N=S(C)(=O)C2CCOCC2)cc2ncnc(Nc3ccc(F)cc3O[C@@H]3CO[C@@H]4CCO[C@@H]43)c12 (some centres unmarked) [Example 2.99] : inhibition at 1 µM is 96

The value of inhibition at 1 µM measured for the compound CS(C)(=O)=Nc1cc(Cl)c2c(Nc3ccc(F)cc3O[C@@H]3CO[C@@H]4CCO[C@@H]43)ncnc2c1 [Example 1.4] turned out to be 100

Lab note: Cc1cc(N=S(C)(C)=O)cc2ncnc(Nc3ccc(F)cc3O[C@@H]3CO[C@H]4[C@@H]3OC[C@@H]4O)c12 [Example 1.1] gave inhibition at 1 µM of 98

Reported inhibition at 1 µM of Cc1cc(N=S(C)(C)=O)cc2ncnc(Nc3ccc(C#N)cc3O[C@H]3CC[C@H](O)CC3)c12 [Example 2.65] : 98

Item: CO[C@H]1CC[C@H](Oc2cc(F)ccc2Nc2ncnc3cc(N=S4(=O)CCN(C(=O)N(C)C)CC4)cc(C)c23)CC1 [Example 7.5] | inhibition at 1 µM: 77

Just so you know, measured inhibition at 1 µM for Cc1cc(N=S2(=O)CCCC2)cc2ncnc(Nc3cccnc3O[C@@H]3CO[C@H]4[C@@H]3OC[C@H]4O)c12 [Example 2.4] came out at 97

Consider CS(C)(=O)=Nc1cc(F)c2c(Nc3ccc(F)cc3O[C@H]3CC[C@@](C)(O)CC3)ncnc2c1 [Example 2.35] . Its measured inhibition at 1 µM is 95

###

- system.under.test: UniProt:Q9BUB5
- test: MNK1 in vitro kinase assay (assay 2), Z'-LYTE
- Format: biochemical
- condition.summary: compound concentration of 1 μM
Kind request: treat 90% as inclusive, so inhibition at 1 µM at 90% or higher is TRUE, anything lower is FALSE.

Query: Evaluate Cc1cc(N=S2(=O)CCCC2)cc2ncnc(Nc3ccsc3O[C@@H]3CCOC3)c12 [Example 2.8] : inhibition at 1 µM at minimum 90%?
Response: FALSE

Query: Determine whether measured inhibition at 1 µM meets or exceeds 90% for CC(C)(C)OC(=O)N1CCC[C@@H](Oc2cc(F)ccc2Nc2ncnc3cc(N=S(C)(C)=O)cc(F)c23)C1 [Example 2.13]
Response: FALSE

Query: inhibition at 1 µM >= 90% for Cc1cc(N=S(C)(=O)C(C)C)cc2ncnc(Nc3ccc(F)cc3O[C@@H]3CO[C@@H]4CCO[C@@H]43)c12 (some centres unmarked) [Example 2.109] ?
Response: TRUE

Query: Record CC(C)(C)OC(=O)N1CC[C@@H](Oc2cc(F)ccc2Nc2ncnc3cc(N=S(C)(C)=O)cc(F)c23)C1 [Example 2.32] ; criterion: inhibition at 1 µM no lower than 90%. Met?
Response: FALSE

Query: Does CCS(C)(=O)=Nc1cc(C)c2c(Nc3cccnc3O[C@H]3CC[C@H](O)CC3)ncnc2c1 (some centres unmarked) [Example 2.44] have a reported inhibition at 1 µM of at least 90%?
Response: TRUE

Query: Please indicate if the recorded inhibition at 1 µM for Cc1cc(N=S2(=O)CCC(O)CC2)cc2ncnc(Nc3ccc(F)cc3O[C@H]3CCOC3)c12 (some centres unmarked) [Example 2.97] meets or exceeds 90%.
Response: TRUE

Query: Is inhibition at 1 µM for CO[C@@H]1CCC[C@H]1Oc1cc(F)ccc1Nc1ncnc2cc(N=S(C)(C)=O)cc(C)c12 [Example 1.36] at or above 90%?
Response: FALSE

Query: Is inhibition at 1 µM for Cc1cc(N=S(C)(C)=O)cc2ncnc(Nc3cccnc3O[C@H]3CC[C@H](N)CC3)c12 [Example 3.2] at or above 90%?
Response: TRUE

Query: Determine whether measured inhibition at 1 µM meets or exceeds 90% for CC(C)(C)OC(=O)N1CCC[C@@H](Oc2ncccc2Nc2ncnc3cc(N=S(C)(C)=O)cc(F)c23)C1 [Example 2.77]
Response: FALSE

Query: In plain terms: is recorded inhibition at 1 µM at least 90% for Cc1cc(N=S(C)(C)=O)cc2ncnc(Nc3ccc(F)cc3O[C@@H]3CCCN(CCO)C3)c12 [Example 6.9] ?
Response: TRUE

Query: Entry Cc1cc(N=S2(=O)CCN(C(=O)OC(C)(C)C)CC2)cc2ncnc(Nc3ccc(F)cc3O[C@H]3CO[C@H]4[C@@H]3OC[C@H]4O)c12 [Example 2.21] : is its inhibition at 1 µM no less than 90%?
Response: FALSE

Query: Check the entry Cc1cc(N=S(C)(C)=O)cc2ncnc(Nc3ccc(F)cc3O[C@@H]3CO[C@H]4[C@@H]3OC[C@H]4O)c12 [Example 1.18] : does inhibition at 1 µM equal or exceed 90%?
Response: TRUE

Query: inhibition at 1 µM >= 90% for Cc1cc(N=S(C)(C)=O)cc2ncnc(Nc3ccc(C(N)=O)cc3OC3CCOCC3)c12 [Example 2.16] ?
Response: TRUE

Query: Reported inhibition at 1 µM reaches at least 90% for Cc1cc(N=S2(=O)CCC(O)CC2)cc2ncnc(Nc3ccc(F)cc3O[C@@H]3CO[C@@H]4CCO[C@@H]43)c12 (some centres unmarked) [Example 2.94] ?
Response: TRUE

Query: Does Cc1cc(N=S(C)(C)=O)cc2ncnc(Nc3ccc(F)cc3O[C@@H]3CO[C@H]4[C@@H]3OC[C@@H]4F)c12 [Example 2.116] have a reported inhibition at 1 µM of at least 90%?
Response: TRUE

Query: // inclusive: inhibition at 1 µM at least 90%? input: Cc1cc(N=S(C)(C)=O)cc2ncnc(Nc3ccc(C#N)cc3OC3CCOCC3)c12 [Example 7.6]
Response: TRUE

Query: Entry Cc1cc(N=S2(=O)CCCC2)cc2ncnc(Nc3ccc(F)cc3O[C@@H]3CO[C@@H]4CCC[C@@H]43)c12 [Example 2.123] : is its inhibition at 1 µM no less than 90%?
Response: TRUE

Query: Check the entry CS(C)(=O)=Nc1cc(SCF)c2c(Nc3ccc(F)cc3O[C@H]3CCOC3)ncnc2c1 [Example 7.11] : does inhibition at 1 µM equal or exceed 90%?
Response: TRUE

Query: Does the compound Cc1cc(N=S(C)(C)=O)cc2ncnc(Nc3ccc(F)cc3O[C@H]3CO[C@H]4[C@@H]3OC[C@H]4O)c12 [Example 2.19] have recorded inhibition at 1 µM that is 90% or more?
Response: FALSE

Query: Please check the record Cc1cc(N=S(C)(C)=O)cc2ncnc(Nc3ccc(F)cc3OC3COCOC3)c12 [Example 2.120] and state if its inhibition at 1 µM is at or above 90%.
Response: TRUE

Query: Determine whether measured inhibition at 1 µM meets or exceeds 90% for Cc1cc(N=S(C)(C)=O)cc2ncnc(Nc3ccc(F)cc3O[C@H]3CCOC3)c12 [Example 2.47]
Response: TRUE
